Assignment: determine reported Selectivity ratio for the given compounds.
# System: Staphylococcus aureus
# experimentalDetails: Selectivity ratio of MBC for methicillin-resistant Staphylococcus aureus PU 32 harboring i-ermA gene to MIC for methicillin-resistant Staphylococcus aureus PU 32 harboring i-ermA gene
# Assay type: functional
Please state the value as a number alone, without comment.

INPUT: State the recorded Selectivity ratio for this entry: CC[C@H]1OC(=O)[C@H](C)[C@@H](OC(=O)CCNCCCCNc2cc3c(cc2F)c(=O)c(C(=O)O)cn3C2CC2)[C@H](C)[C@@H](O[C@@H]2O[C@H](C)C[C@H](N(C)C)[C@H]2O)[C@](C)(OC)C[C@@H](C)/C(=N\OCC#Cc2cncc(NC(C)=O)c2)[C@H](C)[C@H]2OC(=O)O[C@@]21C
OUTPUT: 2

INPUT: If you can, please state the reported Selectivity ratio value of CC[C@H]1OC(=O)[C@H](C)[C@@H](OC(=O)CCNCCCCNc2cc3c(cc2F)c(=O)c(C(=O)O)cn3C2CC2)[C@H](C)[C@@H](O[C@@H]2O[C@H](C)C[C@H](N(C)C)[C@H]2O)[C@](C)(OC)C[C@@H](C)/C(=N\OCC#Cc2cncc(C(N)=O)c2)[C@H](C)[C@H]2OC(=O)O[C@@]21C .
OUTPUT: 2

INPUT: Look up Selectivity ratio: CC[C@H]1OC(=O)[C@H](C)[C@@H](OC(=O)CCNCCCCNc2cc3c(cc2F)c(=O)c(C(=O)O)cn3C2CC2)[C@H](C)[C@@H](O[C@@H]2O[C@H](C)C[C@H](N(C)C)[C@H]2O)[C@](C)(OC)C[C@@H](C)/C(=N\OC/C=C/c2cncc(C(N)=O)c2)[C@H](C)[C@H]2OC(=O)O[C@@]21C
OUTPUT: 1

====

# System: Staphylococcus aureus
# experimentalDetails: Bactericidal activity against methicillin-resistant Staphylococcus aureus PU 32 harboring i-ermA gene incubated for 16 to 20 hrs by CLSI based broth microdilution method
# Assay type: functional
# particulars: time 16-20 hrs
reportedMetric: MBC (µg/mL)
Numeric answer only, unit µg/mL assumed.

INPUT: // MBC lookup, key: CC[C@H]1OC(=O)[C@H](C)[C@@H](OC(=O)CCNCCCCCNc2cc3c(cc2F)c(=O)c(C(=O)O)cn3C2CC2)[C@H](C)[C@@H](O[C@@H]2O[C@H](C)C[C@H](N(C)C)[C@H]2O)[C@](C)(OC)C[C@@H](C)/C(=N\OC)[C@H](C)[C@H]2OC(=O)O[C@@]21C
OUTPUT: 8

INPUT: Look at this molecule and give its reported MBC. CC[C@H]1OC(=O)[C@H](C)[C@@H](OC(=O)CCNCCCCNc2cc3c(cc2F)c(=O)c(C(=O)O)cn3C2CC2)[C@H](C)[C@@H](O[C@@H]2O[C@H](C)C[C@H](N(C)C)[C@H]2O)[C@](C)(OC)C[C@@H](C)/C(=N\OCC#Cc2cncc(C(=O)NC)c2)[C@H](C)[C@H]2OC(=O)O[C@@]21C
OUTPUT: 32

====

Provide the reported MBC of each item.
# Test system: Staphylococcus aureus
# experimentalDetails: Bactericidal activity against methicillin-resistant Staphylococcus aureus PU 32 harboring i-ermA gene incubated for 16 to 20 hrs by CLSI based broth microdilution method
# Assay type: functional
# particulars: time 16-20 hrs

INPUT: Dear colleague, I am looking for the recorded MBC of the following compound: CC[C@H]1OC(=O)[C@H](C)[C@@H](OC(=O)CCNCCCCNc2cc3c(cc2F)c(=O)c(C(=O)O)cn3C2CC2)[C@H](C)[C@@H](O[C@@H]2O[C@H](C)C[C@H](N(C)C)[C@H]2O)[C@](C)(OC)C[C@@H](C)/C(=N\OCCCc2cncc(C(=O)NC)c2)[C@H](C)[C@H]2OC(=O)O[C@@]21C
OUTPUT: 32 µg/mL

INPUT: Reported MBC for C#CCO/N=C1\[C@H](C)C[C@@](C)(OC)[C@H](O[C@@H]2O[C@H](C)C[C@H](N(C)C)[C@H]2O)[C@@H](C)[C@H](OC(=O)CCN2CCN(c3cc4c(cc3F)c(=O)c(C(=O)O)cn4C3CC3)CC2)[C@@H](C)C(=O)O[C@H](CC)[C@@]2(C)OC(=O)O[C@@H]2[C@H]1C : what is it?
OUTPUT: > 256 µg/mL

INPUT: Quick one: MBC of CC[C@H]1OC(=O)[C@H](C)[C@@H](OC(=O)CCN2CCN(c3c(F)cc4c(=O)c(C(=O)O)cn(C5CC5)c4c3OC)CC2C)[C@H](C)[C@@H](O[C@@H]2O[C@H](C)C[C@H](N(C)C)[C@H]2O)[C@](C)(OC)C[C@@H](C)/C(=N\OCC#Cc2cncc(C(=O)NC)c2)[C@H](C)[C@H]2OC(=O)O[C@@]21C (stereo partly drawn) ?
OUTPUT: > 256 µg/mL

====

# Test system: Haemophilus influenzae
# experimentalDetails: Selectivity ratio of MBC for Haemophilus influenzae ATCC 49247 to MIC for Haemophilus influenzae ATCC 49247
# Assay type: functional
reportedMetric: Selectivity ratio
Just the number, please, no unit after it.

INPUT: Fill in: Selectivity ratio of CC[C@H]1OC(=O)[C@H](C)[C@@H](OC(=O)CCNCCCCCNc2cc3c(cc2F)c(=O)c(C(=O)O)cn3C2CC2)[C@H](C)[C@@H](O[C@@H]2O[C@H](C)C[C@H](N(C)C)[C@H]2O)[C@](C)(OC)C[C@@H](C)/C(=N\OC)[C@H](C)[C@H]2OC(=O)O[C@@]21C is ___
OUTPUT: 1

INPUT: Endpoint output: Selectivity ratio of CC[C@H]1OC(=O)[C@H](C)[C@@H](OC(=O)CCNCCCCNc2cc3c(cc2F)c(=O)c(C(=O)O)cn3C2CC2)[C@H](C)[C@@H](O[C@@H]2O[C@H](C)C[C@H](N(C)C)[C@H]2O)[C@](C)(OC)C[C@@H](C)/C(=N\OC/C=C/c2cncc(C(N)=O)c2)[C@H](C)[C@H]2OC(=O)O[C@@]21C . Value?
OUTPUT: 1

INPUT: Which Selectivity ratio value is on record for CC[C@H]1OC(=O)[C@H](C)[C@@H](OC(=O)CCNCCCCNc2cc3c(cc2F)c(=O)c(C(=O)O)cn3C2CC2)[C@H](C)[C@@H](O[C@@H]2O[C@H](C)C[C@H](N(C)C)[C@H]2O)[C@](C)(OC)C[C@@H](C)/C(=N\OCC#Cc2cncc(C(N)=O)c2)[C@H](C)[C@H]2OC(=O)O[C@@]21C ?
OUTPUT: 1

INPUT: Which Selectivity ratio reading was recorded for the compound CC[C@H]1OC(=O)[C@H](C)[C@@H](OC(=O)CCNCCCCNc2cc3c(cc2F)c(=O)c(C(=O)O)cn3C2CC2)[C@H](C)[C@@H](O[C@@H]2O[C@H](C)C[C@H](N(C)C)[C@H]2O)[C@](C)(OC)C[C@@H](C)/C(=N\OCCCc2cncc(C(=O)NC)c2)[C@H](C)[C@H]2OC(=O)O[C@@]21C ?
OUTPUT: 2

INPUT: Which measured Selectivity ratio value corresponds to CC[C@H]1OC(=O)[C@H](C)[C@@H](OC(=O)CCNCCNc2cc3c(=O)c(C(=O)O)cn(C4CC4)c3cc2Cl)[C@H](C)[C@@H](O[C@@H]2O[C@H](C)C[C@H](N(C)C)[C@H]2O)[C@](C)(OC)C[C@@H](C)/C(=N\OC)[C@H](C)[C@H]2OC(=O)O[C@@]21C ?
OUTPUT: 1

INPUT: // lookup Selectivity ratio for CC[C@H]1OC(=O)[C@H](C)[C@@H](OC(=O)CCNCCCCNc2cc3c(cc2F)c(=O)c(C(=O)O)cn3C2CC2)[C@H](C)[C@@H](O[C@@H]2O[C@H](C)C[C@H](N(C)C)[C@H]2O)[C@](C)(OC)C[C@@H](C)/C(=N\OC/C=C/c2cncc(C(=O)NC)c2)[C@H](C)[C@H]2OC(=O)O[C@@]21C
OUTPUT: 2

INPUT: // Selectivity ratio lookup, key: CC[C@H]1OC(=O)[C@H](C)[C@@H](OC(=O)CCNCCCCCCNc2cc3c(cc2F)c(=O)c(C(=O)O)cn3C2CC2)[C@H](C)[C@@H](O[C@@H]2O[C@H](C)C[C@H](N(C)C)[C@H]2O)[C@](C)(OC)C[C@@H](C)/C(=N\OC)[C@H](C)[C@H]2OC(=O)O[C@@]21C
OUTPUT: 1

====

# Test system: Staphylococcus aureus
# experimentalDetails: Selectivity ratio of MBC for methicillin-resistant Staphylococcus aureus PU 32 harboring i-ermA gene to MIC for methicillin-resistant Staphylococcus aureus PU 32 harboring i-ermA gene
# Assay type: functional
Please provide measured Selectivity ratio for the entries that follow.
Would you mind answering with just the numeric figure?

INPUT: Suppose we examine the molecule CC[C@H]1OC(=O)[C@H](C)[C@@H](OC(=O)CCNCCCCNc2cc3c(cc2F)c(=O)c(C(=O)O)cn3C2CC2)[C@H](C)[C@@H](O[C@@H]2O[C@H](C)C[C@H](N(C)C)[C@H]2O)[C@](C)(OC)C[C@@H](C)/C(=N\OCC#Cc2cncc(C(=O)NC3CC3)c2)[C@H](C)[C@H]2OC(=O)O[C@@]21C ; what Selectivity ratio value has been reported?
OUTPUT: 2

INPUT: Any idea what Selectivity ratio was measured for CC[C@H]1OC(=O)[C@H](C)[C@@H](OC(=O)CCNCCCCNc2cc3c(cc2F)c(=O)c(C(=O)O)cn3C2CC2)[C@H](C)[C@@H](O[C@@H]2O[C@H](C)C[C@H](N(C)C)[C@H]2O)[C@](C)(OC)C[C@@H](C)/C(=N\OCCCc2cncc(C(=O)NC)c2)[C@H](C)[C@H]2OC(=O)O[C@@]21C ?
OUTPUT: 1
